# Tested On: muPA Y99A (Mus musculus, UniProt P06869, Y274A)
# Construct: To ensure that the uPAs purified from the conditioned media were completely in the two-chain form, they were treated with plasmin; hexa-His (C); made in house; host or cells: HEK293 6E suspension cells
# Sequence (P06869 180-433 Y274A, one chain of several): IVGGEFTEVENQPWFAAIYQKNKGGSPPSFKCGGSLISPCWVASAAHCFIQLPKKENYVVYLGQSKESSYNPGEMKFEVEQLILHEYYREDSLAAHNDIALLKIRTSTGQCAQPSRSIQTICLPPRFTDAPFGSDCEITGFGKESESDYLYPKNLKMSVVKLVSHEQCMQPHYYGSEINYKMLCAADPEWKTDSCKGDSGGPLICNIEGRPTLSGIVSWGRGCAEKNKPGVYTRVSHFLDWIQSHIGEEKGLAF
# Test Details: Ki for inhibition of muPA-Y99A, chromogenic substrate
# Assay type: biochemical, murine
# Measurement Parameters: means ± S.D.; read-out: K i for inhibition of muPA-Y99A
pKi: −log10 of the molar value. Bridge positions count the residues as written; N and C are the ends. Square brackets hold non-standard residues; d marks the D form. Peptide text beside a SMILES is read from it. Phe(4-guanidino) = N=C(N)Nc1ccc(C[C@H](N)C(=O)O)cc1

Compound	pKi
CC(=O)N[C@H]1CSSC[C@@H](C(N)=O)NC(=O)[C@H](C)NC(=O)[C@H](CC(C)C)NC(=O)[C@H](Cc2ccc(O)cc2)NC(=O)[C@H](Cc2ccc(NC(=N)N)cc2)NC(=O)[C@H](CO)NC(=O)[C@H](Cc2ccc(O)cc2)NC(=O)[C@H](C)NC(=O)[C@@H]2CCCN2C1=O [Mupain-1-12 D9A, CPAYS[4-guanidino-phenyl-alanine]YLAC] (Ac-CPAYS[Phe(4-guanidino)]YLAC-NH2; disulfide 1-10; N-terminus assumed)	5.23

---

Reported values of pKi for individual entries
# Tested On: muPA S190A (Mus musculus, UniProt P06869, S373A)
# Construct: To ensure that the uPAs purified from the conditioned media were completely in the two-chain form, they were treated with plasmin; hexa-His (C); made in house; host or cells: HEK293 6E suspension cells
# Sequence (P06869 180-433 S373A): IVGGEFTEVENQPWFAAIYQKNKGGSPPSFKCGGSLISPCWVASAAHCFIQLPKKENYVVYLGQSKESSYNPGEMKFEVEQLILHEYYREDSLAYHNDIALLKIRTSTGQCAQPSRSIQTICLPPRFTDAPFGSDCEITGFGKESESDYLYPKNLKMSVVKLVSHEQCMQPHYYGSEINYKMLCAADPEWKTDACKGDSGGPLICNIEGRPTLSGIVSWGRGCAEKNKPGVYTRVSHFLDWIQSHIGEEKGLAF
# Sequence (P06869 21-178 partner limits assumed): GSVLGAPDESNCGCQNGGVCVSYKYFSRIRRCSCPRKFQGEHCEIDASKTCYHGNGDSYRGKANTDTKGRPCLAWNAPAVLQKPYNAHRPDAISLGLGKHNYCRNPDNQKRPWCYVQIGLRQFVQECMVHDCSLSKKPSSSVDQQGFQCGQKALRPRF
# Test Details: Ki for inhibition of muPA-S190A, chromogenic substrate
# Format: biochemical, murine
# Measurement Parameters: means ± S.D.; read-out: K i for inhibition of muPA-S190A
pKi: −log10 of the molar value. Bridge positions count the residues as written; N and C are the ends. Square brackets hold non-standard residues; d marks the D form. Peptide text beside a SMILES is read from it. Ala(1-amidino-4-piperidyl) = N=C(N)N1CCC(C[C@H](N)C(=O)O)CC1

Compound	pKi
CC(=O)N[C@H]1CSSC[C@@H](C(N)=O)NC(=O)[C@H](C)NC(=O)[C@H](CC(C)C)NC(=O)[C@H](Cc2ccc(O)cc2)NC(=O)[C@H](CC2CCN(C(=N)N)CC2)NC(=O)[C@H](CO)NC(=O)[C@H](Cc2ccc(O)cc2)NC(=O)[C@H](C)NC(=O)[C@@H]2CCCN2C1=O [Mupain-1-16 D9A] (Ac-CPAYS[Ala(1-amidino-4-piperidyl)]YLAC-NH2; disulfide 1-10)	6.28
CC(=O)N[C@H]1CSSC[C@@H](C(N)=O)NC(=O)[C@H](C)NC(=O)[C@H](CC(C)C)NC(=O)[C@H](Cc2ccc(O)cc2)NC(=O)[C@H](CCCNC(=N)N)NC(=O)[C@H](CO)NC(=O)[C@H](Cc2ccc(O)cc2)NC(=O)[C@H](C)NC(=O)[C@@H]2CCCN2C1=O [Mupain-1 D9A, CPAYSRYLAC] (Ac-CPAYSRYLAC-NH2; disulfide 1-10)	5.52

---

# Tested On: muPA Y99A (Mus musculus, UniProt P06869, Y274A)
# Construct: To ensure that the uPAs purified from the conditioned media were completely in the two-chain form, they were treated with plasmin; hexa-His (C); made in house; host or cells: HEK293 6E suspension cells
# Test Details: Ki for inhibition of muPA-Y99A, chromogenic substrate
# Assay type: biochemical, murine
# Measurement Parameters: means ± S.D.; read-out: K i for inhibition of muPA-Y99A
Bridge positions count the residues as written; N and C are the ends. Square brackets hold non-standard residues; d marks the D form. Peptide text beside a SMILES is read from it. Ala(1-amidino-4-piperidyl) = N=C(N)N1CCC(C[C@H](N)C(=O)O)CC1
Reported Metric: Ki (nM)

Compound	Reported Metric	Observed
CC(=O)N[C@H]1CSSC[C@@H](C(N)=O)NC(=O)[C@H](CC(=O)O)NC(=O)[C@H](CC(C)C)NC(=O)[C@H](Cc2ccc(O)cc2)NC(=O)[C@H](CC2CCN(C(=N)N)CC2)NC(=O)[C@H](CO)NC(=O)[C@H](Cc2ccc(O)cc2)NC(=O)[C@H](C)NC(=O)[C@@H]2CCCN2C1=O [Mupain-1-16] (Ac-CPAYS[Ala(1-amidino-4-piperidyl)]YLDC-NH2; disulfide 1-10)	Ki	1240
